protein stability index listing for selected variants.
B1: FUNDC2 (parent)
chain: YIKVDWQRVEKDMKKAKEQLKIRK

- Variants of: B1
- protocol.notes: protein stability index of a GFP-peptide fusion (GPS, HEK-293T) (PSI 1-6); higher = more stable;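 note: lentivirally expressed fusions sorted by FACS into six bins by GFP to DsRed ratio, PSI derived from sequencing read proportions per bin multiplied by bin number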
- test.context: c terminus: a fixed tail appended
Response field accepts a number only; no unit should be typed.

Please review the following examples before continuing.
* D5P | 2.21
* K15I | 2.01
* I2F | 2.74

// switching to the query variant
Request: Give its protein stability index value. Item: V4G
Result: 2.36
